# reported apparent KD of MS2 coat protein; entries follow
- Tested on: MS2 coat protein
- measurementDescription: apparent KD of MS2 coat protein; higher = weaker reporter binding
- condition: Eterna round: R107; input ligand: tryptophan 2.4 mM
Please respond with the number in nM and leave the unit unwritten.

Reference set, count: 5
- residueString: "GGUGGCGGGACUGAUACCAGCCACCACCGAUAGACCACAUGAGGAUCACCCAUGUUGGGUGGCCCUUGGCAGCAGUCUUGCUGCU [#1 Same State - Theophylline B Attempt #13 (HarryS)]"
  targetEntity: "MS2 coat protein"
  resultValue: 586
- residueString: "GGGCCCGGGCCGGAAACGGCCCGGGCCCUGCGAGGACCGGUACGGCCGCCACUCGCUCGAGUGGGUACAUGAGGAUCACCCAUGU [#17 Exclusion Tryptophan A]"
  targetEntity: "MS2 coat protein"
  resultValue: 31.9
- residueString: "UGUGUCGUCUGAAGGAGCGGCUCUUGAUCCUCGUGAGACAUGAGGAUCACCCAUGUCUCGAGCCAGGUAGGUCGCAGGCGGCACA [#26 Exclusion - Arginine B]"
  targetEntity: "MS2 coat protein"
  resultValue: 14.1
- residueString: "UCGUGUGUUUCGGAUACCAGUGAAAUCGAUACAUGAGGAUCACCCAUGUGAGAGGAUGUACACCCUUGGCAGCUGGCUGUAGCGG [yyzmullin]"
  targetEntity: "MS2 coat protein"
  resultValue: 44.3
- residueString: "UGUAUGUGAUUUGAUACCAGACCAGCUGGUGGUGCAUGAGGAACACCCAUGCAGGUUUGGGUCCCUUGGCAGCAAAUCGCAUACU [SS Theo B #24 Ms19]"
  targetEntity: "MS2 coat protein"
  resultValue: 130

Lab note: need apparent KD of MS2 coat protein for UUUUUUAACUGAAGGAGCGUCACAUGAGGAUCACCCAUGUAUUAGAUGAGAAUGAUCUUGUGGCAGGUAGGUCGCAGAGGAAGGG [#30 Exclusion - Arginine B] on MS2 coat protein, anyone have it?
370

Next: UGUAACAUGAGGAUCACCCAUGUGCACGAUACCAGCUUCGAAAGAGGCCCUUGGCAGCGUAUGCGUAAGCUGUAUAAUAUAUAUC [#28 SameState-TheophyllineA]
10.6

Try the sequence UGUAACAUGAGGAUCACCCAUGUGAGUGAUACCAGAUUAGUAGUAGUCCCUUGGCAGCACAUUGGGCGAGUGUAUAGUCUAUGCG [Same State - Theophylline A (Freestyle 11)]
155

What would you report for GGGAGAUGAAUAGAAUGAGAUGACACAGAAGGAGCGUGAAUUAACACAGGUAGGUCGCUGACAACAUGAGGAUCACCCAUGUAUU [Same State Arginine A GF3] ?
18.9

Repeat for the following sequence: GGAUAGGACAGAAGGAGCGUGAGAUGCAAAGCAUCAUUCCUCACAUGAGGAUCACCCAUGUCACAGGUAGGUCGCUGUCCUAUCG [ArgBX 4]
112

Now consider GAGGAUCAAGUAGAUACCAGCACAUGAGGAUCACCCAUGUAAUGGUGUCCCUCAAGAACGUGCCCUUGGCAGCUACUAUCAAAAU [Enarbeer] and answer again.
14.7

Now the same for ACAUGAGGAUCACCCAUGUCACGGCACGAUACCAGCUGAUGCGGUGGCCCUUGGCAGCGUGACGUUUGGUCCCGCGGAUGACGGG [zzmullin]
53.2
